- System: winter barley (Hordeum vulgare)
- testDescription: Test B postemergence plant response
- Type: in vivo
- assayConditions: Postemergence, 31 g ai/ha; 0 to 100 scale (0 no effect, 100 complete control)
Each record here notes measured Plant response rating, Barley.
Answer as a number with no unit attached.

Below, 5 molecules whose answers are already recorded.
CCCn1c(-c2cccc(Cl)c2)ncc(C(=O)C2=C(O)CCCC2=O)c1=O :: 0
CCCCn1c(-c2cccc(F)c2)ncc(C(=O)C2=C(O)C3CCC(C3)C2=O)c1=O (stereo not drawn) :: 5
COc1ccc(-n2c(-c3ccccc3)ncc(C(=O)C3=C(O)CCCC3=O)c2=O)cc1OC :: 30
O=C(C1=C(O)C2CCC(C2)C1=O)c1cnc(-c2ccsc2)n(CC2CCCO2)c1=O (stereo not drawn) :: 0
COCCn1c(-c2cccc(F)c2)ncc(C(=O)C2=C(O)C3CCC(C3)C2=O)c1=O (stereo not drawn) :: 0

Query :: I would be grateful if you could share the reported Plant response rating, Barley for O=C1CCCC(O)=C1C(=O)c1cnc(-c2ccccc2)n(C2CCCC2)c1=O .
Result :: 0

----------
- System: pigweed (Amaranthus retroflexus)
- testDescription: Test B pre-/postemergence plant response
- Format: in vivo
- assayConditions: Postemergence, 250 g ai/ha; scale 0 to 100 (0 no effect, 100 complete control); 13 to 15 days
Each record here notes measured Plant response rating, Pigweed.
Answer as a number with no unit attached.

Below, 4 compounds whose answers are already recorded.
CCCn1c(-c2cccc(Cl)c2)ncc(C(=O)C2=C(O)CCCC2=O)c1=O :: 100
CCc1ccc(-n2c(-c3ccccc3)ncc(C(=O)C3=C(O)CCCC3=O)c2=O)cc1 :: 100
COCCCn1c(-c2cccc(Br)c2)ncc(C(=O)C2=C(O)CCCC2=O)c1=O :: 98
CCCn1c(-c2cc(F)cc(F)c2)ncc(C(=O)C2=C(O)CCCC2=O)c1=O :: 100

Query :: Recorded Plant response rating, Pigweed for Cc1ccc(F)cc1-n1c(-c2cccc(Cl)c2)ncc(C(=O)C2=C(O)CCCC2=O)c1=O with pigweed (Amaranthus retroflexus), please?
Result :: 98

Query :: Recorded Plant response rating, Pigweed for COCCn1c(-c2cccc(Cl)c2)ncc(C(=O)C2=C(O)CCCC2=O)c1=O with pigweed (Amaranthus retroflexus), please?
Result :: 100

Query :: Recorded Plant response rating, Pigweed for CCCn1c(-c2ccsc2)ncc(C(=O)C2=C(O)C3CCC(C3)C2=O)c1=O (stereo not shown) with pigweed (Amaranthus retroflexus), please?
Result :: 100

----------
- System: corn (Zea mays)
- testDescription: Test B pre-/postemergence plant response
- Type: in vivo
- assayConditions: Postemergence, 31 g ai/ha; 0 to 100 scale (0 no effect, 100 complete control)
// assign MET if Plant response rating, Corn falls strictly below 40, else NOT MET (ties count as NOT MET)

Completed entries (count: 3):
CCCn1c(-c2cccc(C(F)(F)F)c2)ncc(C(=O)C2=C(O)CCCC2=O)c1=O :: MET
CCCn1c(-c2cccc(Br)c2)ncc(C(=O)C2=C(O)CCCC2=O)c1=O :: MET
Cc1ccc(F)cc1-n1c(-c2cccc(Cl)c2)ncc(C(=O)C2=C(O)CCCC2=O)c1=O :: NOT MET

Query :: Would you kindly verify if Plant response rating, Corn of Cc1ccccc1-n1c(-c2cc(F)cc(F)c2)ncc(C(=O)C2=C(O)CCCC2=O)c1=O is strictly less than 40?
Result :: NOT MET

Query :: Would you kindly verify if Plant response rating, Corn of COCCn1c(-c2cccc(F)c2)ncc(C(=O)C2=C(O)CCCC2=O)c1=O is strictly less than 40?
Result :: MET

Query :: Would you kindly verify if Plant response rating, Corn of CCCn1c(-c2ccsc2)ncc(C(=O)C2=C(O)C3CCC(C3)C2=O)c1=O (centres unmarked) is strictly less than 40?
Result :: MET

Query :: Would you kindly verify if Plant response rating, Corn of COCCCn1c(-c2cccc(Br)c2)ncc(C(=O)C2=C(O)CCCC2=O)c1=O is strictly less than 40?
Result :: MET

----------
Each record here notes measured Plant response rating, Nutsedge, Yellow.
- System: yellow nutsedge (Cyperus esculentus)
- testDescription: Test B pre-/postemergence plant response
- Format: in vivo
- assayConditions: Postemergence, 125 g ai/ha; visual rating after 13 to 15 days, scale 0 (no effect) to 100 (complete control)
Answer as a number with no unit attached.

Query :: Recorded Plant response rating, Nutsedge, Yellow for O=C1CCCC(O)=C1C(=O)c1cnc(-c2ccsc2)n(-c2ccccc2)c1=O with yellow nutsedge (Cyperus esculentus), please?
Result :: 75

Query :: Recorded Plant response rating, Nutsedge, Yellow for CCCc1ncc(C(=O)C2=C(O)CCCC2=O)c(=O)n1CC1CCCO1 (stereo not drawn) with yellow nutsedge (Cyperus esculentus), please?
Result :: 70

Query :: Recorded Plant response rating, Nutsedge, Yellow for CCCn1c(-c2cccs2)ncc(C(=O)C2=C(O)CCCC2=O)c1=O with yellow nutsedge (Cyperus esculentus), please?
Result :: 70

Query :: Recorded Plant response rating, Nutsedge, Yellow for CCCCc1ncc(C(=O)C2=C(O)CCCC2=O)c(=O)n1-c1ccc(C)cc1 with yellow nutsedge (Cyperus esculentus), please?
Result :: 65

Query :: Recorded Plant response rating, Nutsedge, Yellow for Cc1ccccc1-n1c(-c2cccc(Cl)c2)ncc(C(=O)C2=C(O)CCCC2=O)c1=O with yellow nutsedge (Cyperus esculentus), please?
Result :: 25

Query :: Recorded Plant response rating, Nutsedge, Yellow for CCCc1ncc(C(=O)C2=C(O)CCCC2=O)c(=O)n1-c1ccccc1C with yellow nutsedge (Cyperus esculentus), please?
Result :: 50

----------
Each record here notes measured Foxtail, Giant plant response rating.
- System: giant foxtail (Setaria faberii)
- testDescription: Test A pre-/postemergence plant response
- Format: in vivo
- assayConditions: Postemergence, 125 g ai/ha; visual injury, 0 to 100 scale (0 no effect, 100 complete control), approx. ten days
Answer as a number with no unit attached.

Below, 5 compounds whose answers are already recorded.
CCCCc1ncc(C(=O)C2=C(O)CCCC2=O)c(=O)n1-c1cccc(C)c1 :: 60
O=C1CCCC(O)=C1C(=O)c1cnc(-c2ccccc2)n(-c2cccc(F)c2)c1=O :: 30
O=C1CCCC(O)=C1C(=O)c1cnc(-c2ccccc2)n(-c2cccc(Br)c2)c1=O :: 50
CCCCc1ncc(C(=O)C2=C(O)CCCC2=O)c(=O)n1-c1ccc(C)cc1 :: 30
Cc1ccc(F)cc1-n1c(-c2ccccc2)ncc(C(=O)C2=C(O)CCCC2=O)c1=O :: 80

With those in mind, consider the next compound.
Query :: I would be grateful if you could share the reported Foxtail, Giant plant response rating for O=C1CCCC(O)=C1C(=O)c1cnc(-c2ccccc2)n(-c2ccccc2F)c1=O .
Result :: 50

----------
- Tested on: wheat (Triticum aestivum)
- testDescription: Test A pre-/postemergence plant response
- Format: in vivo
- assayConditions: Preemergence, 500 g ai/ha; 0 to 100 scale, 0 = no effect, 100 = complete control
valueKind: Plant response rating, Wheat
Answer as a number with no unit attached.

Below, 5 molecules whose answers are already recorded.
O=C1CCCC(O)=C1C(=O)c1cnc(-c2ccc(F)cc2)n(C2CCCCC2)c1=O :: 20
Cc1cccc(-c2ncc(C(=O)C3=C(O)CCCC3=O)c(=O)n2C2CCCCC2)c1 :: 0
COCCn1c(-c2ccsc2)ncc(C(=O)C2=C(O)C3CCC(C3)C2=O)c1=O (stereo not shown) :: 0
CCc1ccc(-n2c(-c3ccccc3)ncc(C(=O)C3=C(O)CCCC3=O)c2=O)cc1 :: 20
O=C1CCCC(O)=C1C(=O)c1cnc(-c2ccccc2)n(C2CCSCC2)c1=O :: 0

Query :: I would be grateful if you could share the reported Plant response rating, Wheat for CCCn1c(-c2cccc(C(F)(F)F)c2)ncc(C(=O)C2=C(O)CCCC2=O)c1=O .
Result :: 0

----------
- Tested on: spanishneedles (Bidens bipinnata)
- testDescription: Test D pre-/postemergence plant response
- Type: in vivo
- assayConditions: Postemergence, 62 g ai/ha; scale 0 to 100 (0 no effect, 100 complete control)
valueKind: Plant response rating, Spanishneedles
Answer as a number with no unit attached.

Below, 3 compounds whose answers are already recorded.
COCCn1c(-c2cccc(F)c2)ncc(C(=O)C2=C(O)C3CCC(C3)C2=O)c1=O (stereo not shown) :: 70
COCCn1c(-c2ccccc2)ncc(C(=O)C2=C(O)CCCC2=O)c1=O :: 90
CCCCn1c(-c2cc(F)cc(F)c2)ncc(C(=O)C2=C(O)C3CCC(C3)C2=O)c1=O (stereo not shown) :: 70

With those in mind, consider the next compound.
Query :: I would be grateful if you could share the reported Plant response rating, Spanishneedles for COCCCn1c(-c2cccc(F)c2)ncc(C(=O)C2=C(O)C3CCC(C3)C2=O)c1=O (stereo not shown) .
Result :: 70

----------
Each record here notes measured Plant response rating, Johnsongrass.
- System: johnsongrass (Sorghum halepense)
- testDescription: Test B pre-/postemergence plant response
- Assay type: in vivo
- assayConditions: Postemergence, 62 g ai/ha; scale 0 (no effect) to 100 (complete control); 13 to 15 days

Below, 4 molecules whose answers are already recorded.
Cc1cc(C)cc(-n2c(-c3ccccc3)ncc(C(=O)C3=C(O)CCCC3=O)c2=O)c1 :: 35
Cc1ccccc1-n1c(-c2cccc(Cl)c2)ncc(C(=O)C2=C(O)CCCC2=O)c1=O :: 75
CCCCc1ncc(C(=O)C2=C(O)CCCC2=O)c(=O)n1-c1cccc(C)c1 :: 10
O=C1CCCC(O)=C1C(=O)c1cnc(-c2ccccc2)n(CC2CCCO2)c1=O (centres unmarked) :: 75

With those in mind, consider the next molecule.
Query :: I would be grateful if you could share the reported Plant response rating, Johnsongrass for Cc1ccccc1-n1c(-c2ccccc2)ncc(C(=O)C2=C(O)CCCC2=O)c1=O .
Result :: 60
